ASSAYED SYSTEM: UniProt P21802
METHOD: FGFR2 Biochemical Caliper Assay
Measured IC50, listed per entry.

Reference set (2 entries):
# COMPOUND, IC50
measured = [
    ("C=C(C)C(=O)Nc1ccc(-c2c(-c3ccc(C(=O)N(C)C4CCCC4)cc3)c3c(N)ncnc3n2C)cc1", "0.1 to 0.25 µM"),
    ("C=C(C)C(=O)Nc1ccc(-c2c(-c3ccc(C(=O)N4CCCC4)cc3)c3c(N)ncnc3n2C)cc1F", "0.25 to 1 µM"),
]

Entry C=C(C)C(=O)Nc1ccc(-c2c(-c3ccc(C(=O)N4CC5CCCCC5C4)cc3)c3c(N)ncnc3n2C)cc1 (stereo not drawn) ; assay system UniProt P21802; IC50 recorded at 0.25 to 1 µM

Form: item C=C(C)C(=O)Nc1ccc(-c2c(-c3ccc(C(=O)NCC(C)(C)F)cc3)c3c(N)ncnc3n2C)cc1 ; test system UniProt P21802; IC50: < 0.1 µM

UniProt P21802 data for C=C(C)C(=O)Nc1ccc(-c2c(-c3ccc(-n4cccn4)nc3)c3c(N)ncnc3n2C)cc1 ; its IC50: 1 to 100 µM

The measured IC50 that C=C(C)C(=O)Nc1ccc(-c2c(-c3ccc(CN4CCC(F)(F)CC4)c(F)c3)c3c(N)ncnc3n2C)cc1 showed for UniProt P21802 is 1 to 100 µM

// assay UniProt P21802, entry C/C=C/C(=O)N1CCC(c2c(-c3ccc(Oc4cccc(C)n4)cc3)c3c(N)ncnc3n2C)C1 (stereo not drawn) , IC50 value = 1 to 100 µM

###

Recorded pIC50, one value per entry.
ASSAYED SYSTEM: FGFR2 (Homo sapiens (Human))
METHOD: Biochemical FGFR2 Caliper assay
pIC50: −log10 of the molar value.

Answered cases to consult:
# ITEM SMILES, PROPERTY, RESULT
measured = [
    ("C#Cc1cc(C)c(-c2c(-c3ccc(Oc4ccn(C)n4)c(F)c3)c3c(N)ncnc3n2C)cn1", "pIC50", "> 7.00"),
    ("C#Cc1cc(C)c(-c2c(-c3ccc(Oc4nccc(C)n4)c(F)c3)c3c(C)ncnc3n2C)c(F)n1", "pIC50", "> 7.00"),
    ("C=C(C)C(=O)Nc1ccc(-c2c(-c3ccc4c(C(=O)NC5CC5)n[nH]c4c3)c3c(N)ncnc3n2C)cc1", "pIC50", "4.00 to 6.00"),
    ("C=C(C)C(=O)Nc1cnc(-c2c(-c3ccc(Oc4cccc(C)n4)c(F)c3)c3c(N)ncnc3n2C)c(F)c1", "pIC50", "> 7.00"),
    ("C=C(C)C(=O)Nc1ccc(-c2cn3ncnc(N)c3c2-c2ccc(C(=O)N3CCCC3)cc2)cc1", "pIC50", "6.60 to 7.00"),
]

Record C=CC(=C)Nc1ccc(-c2c(-c3cnn(C)c3)c3c(N)ncnc3n2C)c(C)c1 / FGFR2 (Homo sapiens (Human)), pIC50 recorded as 4.00 to 6.00

Summary line: C=C(C)C(=O)Nc1ccc(-c2c(-c3ccc(Oc4nccc(C)n4)cc3)c3c(N)ncnc3n2C)c(C)c1Cl , FGFR2 (Homo sapiens (Human)), reported pIC50 = 6.00 to 6.60

###

ASSAYED SYSTEM: FGFR2 (Homo sapiens (Human), UniProt P21802)
Sequence (P21802 22-821): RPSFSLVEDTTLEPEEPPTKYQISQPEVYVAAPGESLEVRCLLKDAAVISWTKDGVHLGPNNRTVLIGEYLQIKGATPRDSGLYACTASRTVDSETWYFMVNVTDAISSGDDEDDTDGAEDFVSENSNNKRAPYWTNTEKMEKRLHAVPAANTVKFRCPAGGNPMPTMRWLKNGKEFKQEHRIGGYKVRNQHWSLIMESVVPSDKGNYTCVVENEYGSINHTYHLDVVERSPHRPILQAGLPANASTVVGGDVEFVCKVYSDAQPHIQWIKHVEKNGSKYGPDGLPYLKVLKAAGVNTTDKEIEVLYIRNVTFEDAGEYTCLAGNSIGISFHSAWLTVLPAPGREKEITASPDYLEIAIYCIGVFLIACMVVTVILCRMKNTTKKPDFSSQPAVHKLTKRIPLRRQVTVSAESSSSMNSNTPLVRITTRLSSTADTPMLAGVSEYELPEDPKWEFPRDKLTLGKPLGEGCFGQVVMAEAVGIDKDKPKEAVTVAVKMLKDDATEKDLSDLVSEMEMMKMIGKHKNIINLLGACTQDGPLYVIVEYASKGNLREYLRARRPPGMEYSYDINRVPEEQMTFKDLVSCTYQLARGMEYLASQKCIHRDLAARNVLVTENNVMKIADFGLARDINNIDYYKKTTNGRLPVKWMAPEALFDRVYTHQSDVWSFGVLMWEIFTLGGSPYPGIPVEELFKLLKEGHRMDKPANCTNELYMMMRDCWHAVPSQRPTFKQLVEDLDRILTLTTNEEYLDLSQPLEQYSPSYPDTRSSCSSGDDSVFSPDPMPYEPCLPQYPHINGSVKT
METHOD: FGFR2 Biochemical Caliper Assay
Documented IC50 across a set of compounds

Below are worked cases with known answers.
# COMPOUND, IC50
rows = [
    ("C=C(C)C(=O)Nc1ccc(-c2c(-c3ccc(C(=O)NCC4(C)CC4)cc3)c3c(N)ncnc3n2C)cc1", "< 100 nM"),
    ("C=C(C)C(=O)Nc1ccc(-c2c(-c3ccc(Oc4ccnc(C)n4)c(Cl)c3)c3c(N)ncnc3n2C)cc1", "250 to 1000 nM"),
    ("C=C(C)C(=O)Nc1ccc(-c2c(-c3ccc(C(=O)NCCC4COC4)cc3)c3c(N)ncnc3n2C)cc1", "250 to 1000 nM"),
    ("C=CC(=O)N1CCC(n2cc(-c3c(-c4ccc(Oc5ccccc5)cc4)c4c(N)ncnc4n3C)cn2)C(O)C1 (stereo not shown)", "< 100 nM"),
    ("C=C(C)C(=O)Nc1ccc(-c2c(C3=CC4CCC(C3)N4)c3c(N)ncnc3n2C)cc1 (stereo not shown)", "100 to 250 nM"),
    ("C=CC(=O)N1CCC(c2c(-c3ccc(C(=O)Nc4ccccn4)cc3)c3c(N)ncnc3n2C)C1 (stereo not shown)", "< 100 nM"),
]

Query compound follows.
IC50 measured on C=C(C)C(=O)Nc1ccc(-c2c(C3CCN(C(=O)N4CCCC4)CC3)c3c(N)ncnc3n2C)cc1 = 1000 to 100000 nM

###

ASSAYED SYSTEM: FGFR2 (Homo sapiens (Human))
METHOD: Biochemical FGFR2 Caliper assay
pIC50: −log10 of the molar value.
PROPERTY: pIC50

# MOLECULE, RESULT
measured = [
    ("C#Cc1ccc(-c2c(-c3ccc(Oc4nccc(C)n4)cc3)c3c(N)ncnc3n2C)c(C)n1 [Example 1085]", "4.00 to 6.00"),
    ("C=CC(=O)NCc1ccc(-c2c(-c3ccc(Oc4nccc(C)n4)cc3)c3c(N)ncnc3n2C)cc1 [Example 921]", "4.00 to 6.00"),
    ("C=C(C)C(=O)Nc1cc(C)c(-c2c(C3=CC[C@@H](C(=O)N4CCCC4)CC3)c3c(N)ncnc3n2C)c(C)c1 (single isomer, unassigned) [Example 1484]", "4.00 to 6.00"),
    ("Cc1ccnc(Oc2ccc(-c3c(-c4ccc(OC[C@@H]5CO5)cc4)n(C)c4ncnc(N)c34)cc2)n1 (single isomer, unassigned) [Example 918]", "6.00 to 6.60"),
    ("C=CC(=O)N1CCC(O)(c2c(-c3ccc(Oc4cccc(C)n4)cc3)c3c(N)ncnc3n2C)C1 (stereo not shown) [Example 833]", "6.60 to 7.00"),
]

Recorded result, Cn1c([C@H]2CCN(C#N)C2)c(-c2ccc(C(=O)N3CCCC3)cc2)c2c(N)ncnc21 (single isomer, unassigned) [Example 861] , pIC50: 4.00 to 6.00

Documented pIC50 of C#Cc1cc(C)c(-c2c(C3=CC[C@@H](C(=O)N4CCC[C@H]4C)CC3)c3c(N)ncnc3n2C)cn1 (single isomer, unassigned) [Example 1219] : > 7.00

# molecule C#Cc1ncc(-c2c(-c3ccc(Oc4nccc(C)n4)c(Cl)c3)c3c(N)ncnc3n2C)c(C)c1F [Example 1264] ; its pIC50 = > 7.00

The molecule identified as C=C(C)C(=O)Nc1ccc(-c2c(-c3cnn(-c4ccc(F)cc4)c3)c3c(N)ncnc3n2C)cc1 [Example 1285] registered its pIC50 at 6.00 to 6.60

Please fill in: pIC50 reported for C=CC(=O)Nc1ccc(-c2c(-c3ccc(Oc4nccc(C)n4)c(F)c3)c3c(C)ncnc3n2C)c(C)c1 [Example 1105] = > 7.00

What the record says about C=CC(=O)Nc1ccc(-c2c(C3=CC[C@H](C(=O)N4CCCC4)CC3)c3c(N)ncnc3n2C)cc1 (single isomer, unassigned) [Example 963] : pIC50 is > 7.00

The reported value for Cc1ccnc(Oc2ccc(-c3c(-c4ccc(NC(=O)C5=COCC5)cc4)n(C)c4ncnc(N)c34)cc2)n1 [Example 952] in terms of pIC50 is > 7.00

pIC50 for C#Cc1nc2cc(-c3c(C4=CC[C@@H](C(=O)N5CCC[C@H]5COC)CC4)c4c(N)ncnc4n3C)ccc2[nH]1 [Example 1320] is > 7.00

###

IC50 values for the compounds below.
ASSAYED SYSTEM: FGFR2 (Homo sapiens (Human))
METHOD: FGFR2 Biochemical Caliper Assay

# COMPOUND, PROPERTY, RESULT
data = [
    ("C=C(C)C(=O)Nc1ccc(-c2c(-c3ccc(C(=O)N(C)C4CCN(C)C4=O)cc3)c3c(N)ncnc3n2C)cc1 (stereo not drawn)", "IC50", "1000 to 100000 nM"),
    ("C=C(C)C(=O)Nc1ccc(-c2c(-c3ccc(Oc4nccc(C)n4)c(C#N)c3)c3c(N)ncnc3n2C)cc1", "IC50", "< 100 nM"),
    ("C=C(C)C(=O)Nc1ccc(-c2c(-c3ccc(C(=O)NCC(C)(C)OC)cc3)c3c(N)ncnc3n2C)cc1", "IC50", "< 100 nM"),
    ("C=C(C)C(=O)Nc1ccc(-c2c(-c3ccc(C(=O)N4CCCC[C@H]4C)cc3)c3c(N)ncnc3n2C)cc1", "IC50", "< 100 nM"),
    ("C=C(C)C(=O)Nc1ccc(-c2c(C3=CCC(C(=O)N4CC5CCC(C5)C4)CC3)c3c(N)ncnc3n2C)cc1 (stereo not drawn)", "IC50", "100 to 250 nM"),
]

Now look at this entry.
Briefly, IC50 measured for C=C(C)C(=O)Nc1ccc(-c2c(-c3cnn(C4CN(C)C4)c3)c3c(N)ncnc3n2C)cc1 : 1000 to 100000 nM
